Target: recombinant human tissue plasminogen activator (Homo sapiens)
Sequence (P00750 36-562): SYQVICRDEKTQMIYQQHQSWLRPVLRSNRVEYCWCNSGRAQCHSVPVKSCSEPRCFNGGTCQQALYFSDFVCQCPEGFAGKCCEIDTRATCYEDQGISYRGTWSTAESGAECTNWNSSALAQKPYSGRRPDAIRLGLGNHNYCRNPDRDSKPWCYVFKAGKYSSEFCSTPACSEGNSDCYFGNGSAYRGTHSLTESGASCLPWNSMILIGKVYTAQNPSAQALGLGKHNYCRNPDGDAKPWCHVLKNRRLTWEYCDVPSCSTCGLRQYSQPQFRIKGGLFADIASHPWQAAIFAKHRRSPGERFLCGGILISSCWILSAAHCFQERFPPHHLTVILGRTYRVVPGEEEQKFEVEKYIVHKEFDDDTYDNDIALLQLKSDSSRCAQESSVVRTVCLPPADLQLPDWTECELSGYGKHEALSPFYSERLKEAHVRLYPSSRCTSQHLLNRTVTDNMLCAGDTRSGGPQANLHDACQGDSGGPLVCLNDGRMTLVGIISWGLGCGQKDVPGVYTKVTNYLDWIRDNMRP
Assay: Inactivation rate of recombinant human tissue plasminogen activator
Assay type: biochemical
Conditions: pH 7.5, Table IX; pH 7.5, 25° C; [I] 3.5-5.0 μM; read-out: kobs/[I]
# maps each entry to its kinact/KI
readout: kinact/KI (M⁻¹ s⁻¹)

N=C(N)SCCCOc1oc(=O)c2cc(NC(=O)Cc3ccccc3)ccc2c1Cl :: 9000
N=C(N)SCCCOc1oc(=O)c2cc(NC(=O)Nc3ccccc3)ccc2c1Cl :: 19000
CC(=O)Nc1ccc2c(Cl)c(OCCCSC(=N)N)oc(=O)c2c1 :: 7000
N=C(N)SCCCOc1oc(=O)c2cc(N)ccc2c1Cl :: 13000
N=C(N)SCCOc1oc(=O)c2cc(NC(=O)Nc3ccccc3)ccc2c1Cl :: 16000
N=C(N)SCCOc1oc(=O)c2cc(NC(=O)[C@H](N)Cc3ccccc3)ccc2c1Cl :: 15000
N=C(N)SCCCOc1oc(=O)c2cc(NC(=O)NCc3ccccc3)ccc2c1Cl :: 18000
N=C(N)SCCOc1oc(=O)c2cc(NC(=O)NCc3ccccc3)ccc2c1Cl :: 19000
N=C(N)SCCCOc1oc(=O)c2cc(NC(=O)[C@@H](N)Cc3ccccc3)ccc2c1Cl :: 11000
N=C(N)SCCOc1oc(=O)c2cc(NC(=O)[C@@H](N)Cc3ccccc3)ccc2c1Cl :: 13000
CC(C)(C)OC(=O)N[C@@H](Cc1ccccc1)C(=O)Nc1ccc2c(Cl)c(OCCCSC(=N)N)oc(=O)c2c1 :: 6000
N=C(N)SCCCOc1oc(=O)c2cc(NC(=O)CCc3ccccc3)ccc2c1Cl :: 15000
